This section presents binders with their documented koff values.
measured-on: T1, biotinylated mouse recombinant IL-12Rβ2 (produced in-house) (mouse, UniProt P97378 24-637, random biotinylated)
T1 construct: Soluble recombinant protein used for panning, ELISA and BLI; also called mIL-12RB2; mIL12RB2
T1 sequence: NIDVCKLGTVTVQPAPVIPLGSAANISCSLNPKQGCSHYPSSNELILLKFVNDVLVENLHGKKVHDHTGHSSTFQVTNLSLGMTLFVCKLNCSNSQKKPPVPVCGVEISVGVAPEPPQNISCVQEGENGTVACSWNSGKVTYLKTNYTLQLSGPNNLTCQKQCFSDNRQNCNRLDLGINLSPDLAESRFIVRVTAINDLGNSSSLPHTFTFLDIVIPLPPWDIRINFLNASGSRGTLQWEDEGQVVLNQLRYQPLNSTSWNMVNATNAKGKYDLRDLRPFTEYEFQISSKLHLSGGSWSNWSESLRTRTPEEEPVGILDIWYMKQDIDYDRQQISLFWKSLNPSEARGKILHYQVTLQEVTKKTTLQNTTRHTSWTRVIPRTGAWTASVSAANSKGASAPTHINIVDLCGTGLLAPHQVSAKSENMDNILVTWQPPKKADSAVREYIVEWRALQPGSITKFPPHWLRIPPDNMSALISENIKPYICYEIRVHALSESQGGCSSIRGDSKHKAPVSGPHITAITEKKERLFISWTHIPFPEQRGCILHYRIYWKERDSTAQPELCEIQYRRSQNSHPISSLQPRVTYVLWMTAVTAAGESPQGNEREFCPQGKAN
experimental-protocol: BLI (Octet Red), periplasmic extract on biotinylated mouse IL-12Rβ2 on streptavidin tips, 1:1 model
Response body: numeric value in s⁻¹, unit text excluded.

[[record]]
binder = "anti-IL-12Rβ2 VHH clone 3CRHM99 (clone ID 21062) (VHH, Tested as periplasmic extract; not shown: C-terminal HA tag) VHH: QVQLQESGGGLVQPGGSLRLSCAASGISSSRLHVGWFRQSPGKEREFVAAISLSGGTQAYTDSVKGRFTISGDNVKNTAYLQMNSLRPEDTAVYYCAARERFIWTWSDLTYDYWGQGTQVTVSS"
observed_result = 0.00671

[[record]]
binder = "anti-IL-12Rβ2 VHH clone 3CRHM14 (clone ID 21053) (VHH, Tested as periplasmic extract; not shown: C-terminal HA tag) VHH: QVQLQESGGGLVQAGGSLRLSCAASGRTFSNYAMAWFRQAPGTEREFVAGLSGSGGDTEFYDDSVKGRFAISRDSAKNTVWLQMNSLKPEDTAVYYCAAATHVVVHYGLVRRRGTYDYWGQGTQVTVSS"
observed_result = 0.00483

[[record]]
binder = "anti-IL-12Rβ2 VHH clone 3CAHM11 (clone ID 21050) (VHH, Tested as periplasmic extract; not shown: C-terminal HA tag) VHH: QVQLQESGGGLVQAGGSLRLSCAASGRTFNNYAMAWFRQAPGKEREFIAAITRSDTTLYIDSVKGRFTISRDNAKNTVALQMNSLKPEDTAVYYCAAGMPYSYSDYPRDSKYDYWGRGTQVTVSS"
observed_result = 0.00462


Let us examine a further case.
Req: Provide one value: measured koff of anti-IL-12Rβ2 VHH clone 3CRHM73 (clone ID 21060) (VHH, Tested as periplasmic extract; not shown: C-terminal HA tag) VHH: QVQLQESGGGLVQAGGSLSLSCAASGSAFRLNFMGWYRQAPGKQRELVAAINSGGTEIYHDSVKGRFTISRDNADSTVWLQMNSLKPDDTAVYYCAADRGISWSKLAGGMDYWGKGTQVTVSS
Resp: 0.00605
